- METHOD_DESCRIPTION: yeast display, Sf9 membrane polyspecificity reagent, FACS + sequencing; frameworks hold sequencing errors
MEASURED_ATTRIBUTE: polyreactivity (PSR sort gate)

MONOMER_SEQUENCE	polyreactivity (PSR sort gate)
QVQLVESGGGLVQAGGSLRLSCAASGSIFLFNAMGWYRQAPGKERELVAAINRDDSTYYADSVKGRFTISRDNAKNTVYLQMNSLKPEDTAVYYCAARQRLSWKTEYYWGQGTQVTVSS	low polyreactivity
QVQLVESGGGLVQAGGSLRLSCAASGGNFLAYAMGWYRQAPGKERELVAAITRRGTRTYYADSVKGRFTISRDNAKNTVYLQMNSLKPEDTAVYYCAADYYPASAGFDYWGQGTQVTVSS	high polyreactivity
QVQLVESGGGLVQAGGSLRLSCAASGRIFYVYAMGWYRQAPGKERELVAAISRGGSTNYADSVKGRFTISRDNAKNTVYLQMNSLKPEDTAVYYCAASSLPHYSYRHSYLYEYWGQGTQVTVSS	low polyreactivity
QVQLVESGGGLVQAGGSLRLSCAASGIIFWYYAMGWYRQAPGKERELVAAISSGGSTTYADSVKGRFTISRDNAKNTVYLQMNSLKPEDTAVYYCAAVWLSLFKVWVDTHEYDYWGQGTQVTVSS	low polyreactivity
QVQLVESGGGLVQAGGSLRLSCAASGITFYVNAMGWYRQAPGKERELVAVITFGGGSTYYADSVKGRFTISRDNAKNTVYLQMNSLKPEDTAVYYCAKDPTYSPYLPGPIFYYKEDYWGQGTQVTVSS	low polyreactivity
QVQLVESGGGLVQAGGSLRLSCAASGFIFLDYAMGWYRQAPGKERELVAAISRSGGSTYYADSVKGRFTISRDYAKNTVYLQMNSLKPEDTAVYYCAAAFYGGGTWDSYWGQGTQVTVSS	high polyreactivity
QVQLVESGGGLVQAGGSLRLSFAASGLIGRYAMGWYRQAPGKERELVAVITSGDSTYYADSVKGRFTISRDNAKNTVYLQMNSLKQEDTAVYYCAADSYRRWGNLFTGNEYDSWGQGTQVTVSS	low polyreactivity
QVQLVESGGGLVQAGGSLRLSCAASGGIFARNVMGWYRQAPGKERELVAAISGSGGSTYYADSVKGRFTISRDNAKNTVYLQMNSLKPEDTAVYYCAARTPGVSVYKDGYWGQGTQVTVSS	low polyreactivity

polyreactivity (PSR sort gate) for `QVQLGESGGGLVLAGGSLRLSCAASGSIFTHYAIGWYRQAPGKERELVAAISWSGGSTYYADSVKGRFTISRDNAQNTVYLQMNSLKPEDTAVYYCAALYYSRLSVSGEYDYWGQGTQVTVSS` ?
high polyreactivity

May I ask what polyreactivity (PSR sort gate) has been recorded for `QVQLVESGGGLVQAGGSLRLSCAASGRTFDKYAMGCYRPAPGTQRELVAAINSSGGSTYYSDSVKGRFTISRDNEKNTVYLQMNSLKPEDTAFYYCAALGIGSYRRYSCYDYWGQGPQVTVSS` ?
low polyreactivity

// lookup polyreactivity (PSR sort gate) for `QVQLVESGGGLVQAGGSLRLSCAASGRTFGSYAMGWYRQAPGKEREFVASITGATTNYADSVKGRFTISRDNAKNTVYLQMNSLKQEDTAVYYCATDVGFGRKQRPHRPGYGYWGQGTQVTVSS`
low polyreactivity

Value lookup for polyreactivity (PSR sort gate); key = `QVQLVESGGGLVQAGGSLRLSCAASGSIFVIYAMGWYRQAPGKERELVAAITWNGGSTFYADSVKGRFTISRDNAKNTVYLQMNSLKPEDTAVYYCNAVAVSNSGWEYDYWGQGTQVTVSS`
low polyreactivity

Given `QVQLVESGGGLVQAGGSLRLSCAASGRIFGQNAMGWYRQAPGKERELVAAITGSGGRTYYADSVKGRFTISRDNAKNTVYLQMNSLKPEYTAVYYCAVSVTSYYRTMDYWGQGTQVTVSS` , state its recorded polyreactivity (PSR sort gate).
low polyreactivity

Give the measured polyreactivity (PSR sort gate) of `QVKHVESGGGLVQAGCILRLSCSASGSTFARYAMGWYRQSPGKERELVAGISQSGGTTYYADSVKGRFTISRDNEKNTVYLQMNSLKPEDTAVYYCAARRWVAYTLEYWGQGTQVTVSS` .
high polyreactivity

Entry under review: `QVQLVESGGSLVQAGGSLRLSCSASGFIFYTNAMGWYRQAPGKERELVAAISSRGTRTYYADSVKGRFTISRDNAKNSVYLQLNSLKPEDTAVYYCAVRTRYLGLEYYYWGQGSQVTVSS` . Reported polyreactivity (PSR sort gate)?
high polyreactivity

Quick one: polyreactivity (PSR sort gate) for `QVQLVESGGGLVQAGGSLRLSCAASGFTSSNNAMGWYRQAPGKERELFAAISSSGGRTYYADSVKGRFTISRDNAKNTVYLQMNSLQPEDTAVYFCAATGYVGGIYGHYPRGYWGQGTQVTVSS` ?
high polyreactivity

Sample `QVQLVETGGGLVHAGGSLRLSCAASGRIFHINAMGWYRQAPGKERELVAAISSGGRTNYADSVKGRFTISRDNAKNTVYLQMNSLKPEDTAVYYCARQYTYGPNRWYGYWGQGTQVTVSS` — what was its polyreactivity (PSR sort gate)?
high polyreactivity

Param item = `QVQLVESAGGLVQAGGSLRLSCAASGRNFYRNAMGWYRQAPGKERELVAAISYSGGSTYYADSVKGRFTISRDNAKNTVYLQMNSLKPEDTAVYYFAAAGDRWGNYWGQGTLVTVSS` ; retrieve measured polyreactivity (PSR sort gate).
high polyreactivity
